Origin of values: patent US20080015202A1

MEASUREMENT_TYPE: melting point

CC(=O)Nc1nc(CCc2ccc(CN3CCN(C(=O)OC(C)(C)C)CC3)cc2)cs1 [Production Example 11] : 140 to 141 °C
CC(=O)Nc1nc(CCc2ccc(CC(=O)O)s2)cs1 [Production Example 5] : 172 to 173.5 °C
CC(=O)Nc1nc(CCc2ccc(CCNC(=N)N)s2)cs1 [Production Example 1] : 121.5 to 123 °C
CC(=O)Nc1nc(CCc2ccc(CC(=O)NC(=N)N)s2)cs1 [Production Example 4] : 188.5 to 190 °C

Consider now this further compound.
Input line: Requested field: melting point. Item: CC(=O)Nc1nc(CCc2ccc(CN3CCNCC3)cc2)cs1 [Production Example 12]
Output line: 164 to 165.5 °C
